# Tested on: T. cruzi Trypo + Ama (Luc2-Tulahuen)
# procedureDetails: In vitro anti-T. cruzi (trypomastigotes and amastigotes) mixture culture luciferase assay
# Assay type: cell-based, Trypanosoma cruzi
# conditionNotes: Trypanosoma cruzi, TULAHUEN; trypomastigotes mixed with NMH cells, 72 h
pIC50: −log10 of the molar value.
# if value of pIC50 reaches 5, tag Met; if it stays below, tag Not met

Some entries whose results are on file:
O=C(Cn1ccnc1[N+](=O)[O-])NCc1ccccc1 [Benznidazole, reference compound]	Met
COc1cc2c(cc1OC)-c1c(C)c3ccc(OC)c(OC)c3c[n+]1CC2 [Dehydrocorydaline nitrate]	Met
COc1cc2c(cc1OC)-c1cc3ccc4c(c3c[n+]1CC2)OCO4 [Epiberberine chloride]	Not met
COc1ccc2cc3[n+](cc2c1O)CCc1cc2c(cc1-3)OCO2 [Berberrubine chloride]	Not met
c1cc2c(c3c1CC1c4cc5c(cc4CCN1C3)OCO5)OCO2 (racemic) [dl-Tetrahydro coptisine]	Not met

Check this molecule for pIC50 at or above 5: COc1cc2c(cc1OC)-c1cc3ccc(OC)c(OC)c3c[n+]1CC2 [Palmatine chloride]
Met

Does pIC50 meet or surpass 5 for c1c2c(cc3c1OCO3)-c1cc3ccc4c(c3c[n+]1CC2)OCO4 [Coptisine chloride] ?
Met
